Some binders, each annotated with its measured EC50.
- Measurement target: T1, SARS-COV-2 RBD (SARS-COV-2, UniProt P0DTC2 319-539)
- T1 construct: also called WT RBD
- Assay notes: ELISA, RBD coated on plate
Give the number; ng/mL is assumed, so skip it.

Below: 3 binders and their reported EC50.
C1050 (antibody, V domains shown) VH: EVQLVESGGGLVQPGRSLRLSCAASGFTFDDYGMHWVRQAPGKGLEWVSGISWNGDSIGYADSVKGRFTISRDNAKTSLYLQMNRLRAEDTALYYCAKAASRSTRIGGAFDIWGQGTMVTVSS VL: QSALTQPASVSGSPGQSITISCTGTSSDVGGYNLVSWYQQHPGKAPKLMIYEGSKRPSGVSNRFSGSKSGNTASLTISGLQAEDEADYYCCSYAYSFTNVFGTGTKVTV; 2.78
C1027 (antibody, V domains shown) VH: EVQLVESGGGLVQPGGSLRLSCAASGFIVTTNYMSWVRQAPGKGLEWVSLIYPGGSTFYADSVEGRFTISRDNSKNTLYLQVNSLRVEDTAVYYCARDTFGRGDDHWGQGTLVTVSS VL: DIQMTQSPSSLSASVGDRVTITCQASQDINIYLNWYQQRPGKAPKLLIYDASNLQTGVPSRFSGSGSGTDFTITISSLQPEDIATYYCQQYDNLPRSFGQGTKLEI; 2.42
C1052 (antibody, V domains shown) VH: QVQLVQSGAEVKKPGASVKVSCKVSGYTLSELSMHWVRQAPGEGLEWLGGFDPEDGETINAQKFQGRVTMTEDRSTDTAYMELSSLRSEDTAVYYCATRGRYCSSGNCYYHHWGQGTLVTVSS VL: DIQMTQSPSTLSASVGDRVIITCRASQNIHNWLAWYQQKPGKAPKLLIYKASSLESGVPSRFSGSGSGTEFTLTISSLQPDDFATYFCQQYHSYSWTFGQGTKVEIK; 2.64

Proceed to the following item.
Quick one: EC50 of C985 (antibody, V domains shown) VH: QVQLVQSGAEVKKPGASVKVSCKASGYIFTGYYMHWVRQAPGQGLEWMGRINPNSGGSRYAEKFQGRVTMTRDTSIITAFMELRGLKSDDTAVYYCAREPIEAVPAGIIVNYYYMDVWGNGTTVTVSS VL: QSALTQPASVSGSPGQSITISCTGTSSDVGGYNYVSWYQQHPGKAPKLMIYDVTSRPSGVSDRFSGSKSGTTASLTISGLQAEDEADYYCSSFTSAFTLVVFGGGTKLTVL ?
3.67
